- ASSAY_OVERVIEW: in vitro
- Format: cell-based
- CONDITIONS: fibroblast cells
Quick list: MCC at 48 h per entry.
RESULT_TYPE: MCC at 48 h

INSERT INTO measurements (molecule, value_reported) VALUES
  ('O=c1cc(CO)occ1O', '> 500 µg/mL'),
  ('CC1=C(O)C(=O)CO1 [4-hydroxy-5-methyl-3[2H]-furanone]', '> 500 µg/mL'),
  ('O=C1O[C@H]([C@@H](O)CO)C(O)=C1O', '50 µg/mL');
